Measured on: GST-CIN85-SH3C
Protocol description: SPR; proteins immobilized via an N-terminal GST-tag, peptides as analyte; Biacore T200, steady-state affinity
pKd: −log10 of the molar value.
Endpoint name: pKd

>>> df
                                     binder  numeric_result
0  PERPPKPFPRRIN (also called proline-rich peptide of CBL) [PepC1]            4.17
